Test system: PPARa:RXRa (NR concentration 270 nM, RXRa partner concentration 90 nM)
Test: PBM binding z-score (relative to random genomic background probes); higher = stronger binding; sequences stand for … in GC…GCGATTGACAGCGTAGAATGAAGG
ASSAY_READOUT: PBM binding z-score
The response must contain the number and no unit.

[
  {
    "RESIDUE_SEQUENCE": "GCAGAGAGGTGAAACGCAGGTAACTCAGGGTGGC",
    "TARGET": "PPARa:RXRa (NR concentration 270 nM, RXRa partner concentration 90 nM)",
    "ASSAY_READOUT": "PBM binding z-score",
    "ASSAY_RESULT": 2.86
  },
  {
    "RESIDUE_SEQUENCE": "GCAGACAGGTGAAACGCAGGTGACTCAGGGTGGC",
    "TARGET": "PPARa:RXRa (NR concentration 270 nM, RXRa partner concentration 90 nM)",
    "ASSAY_READOUT": "PBM binding z-score",
    "ASSAY_RESULT": 1.18
  }
]

Then there is this sequence:
The measured PBM binding z-score that "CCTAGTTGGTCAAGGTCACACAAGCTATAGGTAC" showed for PPARa:RXRa (NR concentration 270 nM, RXRa partner concentration 90 nM) is 4.21
